Listing of entries alongside the reported normalised viability.
# Test system: MDA-MB-231
# Assay Text: normalised viability (% of control), CellTiter-Blue; higher = more viable cells (about 100 = DMSO control)
# Study Conditions: 1000 nM; incubation time: 72 h
Report the figure in % without appending any unit label.

Answered cases to consult:
>  <Compound>
CCC/C=C/C=C/C(=O)O[C@H]1/C(=C/C(=O)OC)C[C@H]2C[C@H]([C@@H](C)O)OC(=O)C[C@H](O)C[C@@H]3C[C@H](OC(C)=O)C(C)(C)[C@](O)(C[C@@H]4C/C(=C/C(=O)OC)C[C@H](/C=C/C(C)(C)[C@]1(O)O2)O4)O3

>  <Measured Result>
82.8

$$$$
>  <Compound>
C[C@]12O[C@H](C[C@]1(O)CO)n1c3ccccc3c3c4c(c5c6ccccc6n2c5c31)CNC4=O

>  <Measured Result>
62.6

$$$$
>  <Compound>
O=S(=O)(c1cccc2cnccc12)N1CCCNCC1

>  <Measured Result>
110

$$$$
>  <Compound>
Cc1cccc(-c2nn3c(c2-c2ccnc4ccc(C(N)=O)cc24)CCC3)n1

>  <Measured Result>
111

$$$$
>  <Compound>
COc1cc(CCc2cc(NC(=O)c3ccc(N4CC(C)NC(C)C4)cc3)n[nH]2)cc(OC)c1 (stereo not drawn)

>  <Measured Result>
113

$$$$
>  <Compound>
CO[C@@H](C(=O)N1Cc2[nH]nc(NC(=O)c3ccc(N4CCN(C)CC4)cc3)c2C1)c1ccccc1

>  <Measured Result>
56.7

$$$$
>  <Compound>
Cc1ccc(Nc2nccc(N(C)c3ccc4c(C)n(C)nc4c3)n2)cc1S(N)(=O)=O

>  <Measured Result>
88.7

$$$$

Query (compound): Cc1c(CN2CCN(C(=O)[C@H](C)O)CC2)sc2c(N3CCOCC3)nc(-c3cnc(N)nc3)nc12 ; field requested: normalised viability
27.6

###

# Tested on: CAL-148
# Assay Text: normalised viability (% of control), CellTiter-Blue; higher = more viable cells (about 100 = DMSO control)
# Study Conditions: incubation time: 72 h
Item-by-item account of normalised viability
Include the unit after the number when you answer.

Recorded results for 4 compounds are shown here.
>  <Compound>
C[C@]12O[C@H](C[C@]1(O)CO)n1c3ccccc3c3c4c(c5c6ccccc6n2c5c31)CNC4=O [Lestaurtinib] (1000 nM)

>  <normalised viability>
90.9%

$$$$
>  <Compound>
Cc1ccc(Nc2nccc(N(C)c3ccc4c(C)n(C)nc4c3)n2)cc1S(N)(=O)=O [Pazopanib] (10000 nM)

>  <normalised viability>
79.5%

$$$$
>  <Compound>
CC[C@@]1(O)C(=O)OCc2c1cc1n(c2=O)Cc2cc3c(CN(C)C)c(O)ccc3nc2-1 [Topotecan] (1000 nM)

>  <normalised viability>
13.8%

$$$$
>  <Compound>
CS(=O)(=O)N1CCN(Cc2cc3nc(-c4cccc5[nH]ncc45)nc(N4CCOCC4)c3s2)CC1 [GDC-0941] (10000 nM)

>  <normalised viability>
0.59%

$$$$

Proceeding to the next compound to report its normalised viability.
Any idea what its normalised viability is? The compound is CO[C@@H](C(=O)N1Cc2[nH]nc(NC(=O)c3ccc(N4CCN(C)CC4)cc3)c2C1)c1ccccc1 [Danusertib] (10000 nM)
69.4%

###

# Tested on: MCF-10A
# Assay Text: normalised response (% of control), CellTiter-Glo; higher = more viable cells (100 = DMSO, 0 = benzethonium chloride kill control)
# Study Conditions: incubation time: 72 h
Observation Type: normalised response
Number first, unit second: that is the form wanted.

# count of solved cases: 5
>  <Compound>
O=S(=O)(c1cccc2cnccc12)N1CCCNCC1 [Fasudil] (5000 nM)

>  <normalised response>
89%

$$$$
>  <Compound>
Cc1cccc(-c2nn3c(c2-c2ccnc4ccc(C(N)=O)cc24)CCC3)n1 [Galunisertib] (0.1 nM)

>  <normalised response>
109%

$$$$
>  <Compound>
CNC(=O)c1cc(Oc2ccc(NC(=O)Nc3ccc(Cl)c(C(F)(F)F)c3)cc2)ccn1 [Sorafenib] (100 nM)

>  <normalised response>
122%

$$$$
>  <Compound>
COc1ccc(-c2cc3c(C)nc(N)nc3n([C@H]3CC[C@H](OCCO)CC3)c2=O)cn1 (10 nM)

>  <normalised response>
79.8%

$$$$
>  <Compound>
CC(C)N(CCCNC(=O)Nc1ccc(C(C)(C)C)cc1)C[C@H]1O[C@@H](n2cc(Br)c3c(N)ncnc32)[C@H](O)[C@@H]1O [SGC0946] (10 nM)

>  <normalised response>
97.4%

$$$$

Any idea what normalised response was measured for Cn1cc(CNCC2CCN(c3ncc(C(=O)NO)cn3)CC2)c2ccccc21 [Quisinostat] (100 nM) ?
51.6%

What does the record list as normalised response for CCC/C=C/C=C/C(=O)O[C@H]1/C(=C/C(=O)OC)C[C@H]2C[C@H]([C@@H](C)O)OC(=O)C[C@H](O)C[C@@H]3C[C@H](OC(C)=O)C(C)(C)[C@](O)(C[C@@H]4C/C(=C/C(=O)OC)C[C@H](/C=C/C(C)(C)[C@]1(O)O2)O4)O3 [Bryostatin 1] (0.1 nM) ?
109%

What value of measured normalised response is listed for CCCCC/C=C/C=C1/C(=O)C=C[C@@H]1C/C=C\CCCC(=O)O [15D-PGJ2] (80 nM) ?
111%

Given the entry Cc1cccc(-c2nn3c(c2-c2ccnc4ccc(C(N)=O)cc24)CCC3)n1 [Galunisertib] (100 nM) , report its measured normalised response.
109%

Given the entry CC(C)N(CCCNC(=O)Nc1ccc(C(C)(C)C)cc1)C[C@H]1O[C@@H](n2cc(Br)c3c(N)ncnc32)[C@H](O)[C@@H]1O [SGC0946] (1 nM) , report its measured normalised response.
101%

Recorded normalised response for Cc1cccc(-c2nn3c(c2-c2ccnc4ccc(C(N)=O)cc24)CCC3)n1 [Galunisertib] (1 nM) , please?
102%

So what's the measured normalised response for this one? CNC(=O)c1cc(Oc2ccc(NC(=O)Nc3ccc(Cl)c(C(F)(F)F)c3)cc2)ccn1 [Sorafenib] (1 nM)
105%

Record request: normalised response value, item O=C(NC[C@H](O)CO)c1ccncc1Nc1ccc(I)cc1F [Pimasertib] (10 nM)
66.6%

Looking for the measured normalised response of CC/C(=C(\c1ccc(O)cc1)c1ccc(OCCN(C)C)cc1)c1ccccc1 [4-hydroxytamoxifen] (1000 nM) , can you help?
98.8%

###

# Tested on: MDA-MB-468
# Assay Text: drug sensitivity score (DSS), CellTox Green (DSS (AUC-based score)); higher = stronger drug effect (viability inhibition or cytotoxicity); extreme values may be limits of the assay
# Study Conditions: incubation time: 72 h
Observation Type: drug sensitivity score
Give the figure only, with no unit attached.

Solved cases below.
>  <Molecule>
COc1cc(CCc2cc(NC(=O)c3ccc(N4CC(C)NC(C)C4)cc3)n[nH]2)cc(OC)c1 (stereo not drawn) [AZD4547]

>  <drug sensitivity score>
0

$$$$
>  <Molecule>
O=C(Nc1c[nH]nc1-c1nc2ccc(CN3CCOCC3)cc2[nH]1)NC1CC1 [AT9283]

>  <drug sensitivity score>
13.2

$$$$

From here, focus on the item given below.
What reported drug sensitivity score corresponds to Cc1cccc(-c2nn3c(c2-c2ccnc4ccc(C(N)=O)cc24)CCC3)n1 [Galunisertib] on MDA-MB-468?
0

###

# Tested on: CAL-85-1
# Assay Text: normalised viability (% of control), CellTiter-Blue; higher = more viable cells (100 = DMSO, 0 = benzethonium chloride kill control)
# Study Conditions: 1 nM; incubation time: 72 h
Exam item: assign t to entries whose normalised viability is below 90% and f to entries at or above 90%. Note that a value of exactly 90% receives f.

Would you please look over these solved cases?
>  <Input Smiles>
CO[C@@H](C(=O)N1Cc2[nH]nc(NC(=O)c3ccc(N4CCN(C)CC4)cc3)c2C1)c1ccccc1

>  <Group>
t

$$$$
>  <Input Smiles>
Cc1c(CN2CCN(C(=O)[C@H](C)O)CC2)sc2c(N3CCOCC3)nc(-c3cnc(N)nc3)nc12

>  <Group>
t

$$$$
>  <Input Smiles>
C[C@]12C=CC(=O)C=C1CC[C@@H]1[C@@H]2[C@@H](O)C[C@@]2(C)[C@H]1CC[C@]2(O)C(=O)CO

>  <Group>
f

$$$$

Input O=C(CCBr)N1CCN(C(=O)CCBr)CC1 ; condition: normalised viability strictly below 90%. Does it hold?
f

Regarding COc1ccc(-c2cc3c(C)nc(N)nc3n([C@H]3CC[C@H](OCCO)CC3)c2=O)cn1 , kindly confirm whether its normalised viability is beneath 90%.
f

###

# System: CAL-85-1
# Assay Text: drug sensitivity score (DSS), CellTiter-Blue viability (DSS (AUC-based score)); higher = stronger viability inhibition; extreme values may be limits of the assay
# Study Conditions: incubation time: 72 h
Recorded drug sensitivity score by entry
Keep it simple and answer with nothing but the number.

Answered cases to consult:
>  <Compound>
COc1ccc(-c2cc3c(C)nc(N)nc3n([C@H]3CC[C@H](OCCO)CC3)c2=O)cn1

>  <Observation Type>
drug sensitivity score

>  <Measured Result>
16.7

$$$$
>  <Compound>
Cc1c(CN2CCN(C(=O)[C@H](C)O)CC2)sc2c(N3CCOCC3)nc(-c3cnc(N)nc3)nc12

>  <Observation Type>
drug sensitivity score

>  <Measured Result>
14.8

$$$$
>  <Compound>
O=C(NC[C@H](O)CO)c1ccncc1Nc1ccc(I)cc1F

>  <Observation Type>
drug sensitivity score

>  <Measured Result>
6.9

$$$$
>  <Compound>
Nc1nc(=O)c2c([nH]1)NCC(CNc1ccc(C(=O)N[C@@H](CCC(=O)O)C(=O)O)cc1)N2C=O (mixture of isomers)

>  <Observation Type>
drug sensitivity score

>  <Measured Result>
0

$$$$
>  <Compound>
C[C@]12O[C@H](C[C@]1(O)CO)n1c3ccccc3c3c4c(c5c6ccccc6n2c5c31)CNC4=O

>  <Observation Type>
drug sensitivity score

>  <Measured Result>
3.82

$$$$
>  <Compound>
CCC/C=C/C=C/C(=O)O[C@H]1/C(=C/C(=O)OC)C[C@H]2C[C@H]([C@@H](C)O)OC(=O)C[C@H](O)C[C@@H]3C[C@H](OC(C)=O)C(C)(C)[C@](O)(C[C@@H]4C/C(=C/C(=O)OC)C[C@H](/C=C/C(C)(C)[C@]1(O)O2)O4)O3

>  <Observation Type>
drug sensitivity score

>  <Measured Result>
7.23

$$$$
>  <Compound>
CO[C@@H](C(=O)N1Cc2[nH]nc(NC(=O)c3ccc(N4CCN(C)CC4)cc3)c2C1)c1ccccc1

>  <Observation Type>
drug sensitivity score

>  <Measured Result>
10.7

$$$$

Next compound, please.
Form field: reported drug sensitivity score of COc1cc(CCc2cc(NC(=O)c3ccc(N4CC(C)NC(C)C4)cc3)n[nH]2)cc(OC)c1 (stereo not drawn)
3.12
